Data credit: patent US20220064648

Molecular target: T1, SNAP25 Peptide 1 (PEP1) (Homo sapiens, UniProt P60880 SEQ:1-35)
T1 chain: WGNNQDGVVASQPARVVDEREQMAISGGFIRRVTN
Experiment: ELONA
# binding signal per record follows

{"binder": "PEP 1.09 (ssDNA, W indole, X amine, Y phenol modified dU [14,27 (X amine dU); 15,19,34 (Y phenol dU); 17,23 (W indole dU)]) DNA: TTTTTAACACGACTTATCTGTGTCAGTCGAACGTCGCGGAGGTGGGCCCATG", "units-label": "ELISA signal", "binding signal": 337}
{"binder": "PEP 1.12 (ssDNA, W indole, X amine, Y phenol modified dU [19,24 (W indole dU); 20,34,46 (Y phenol dU); 43 (X amine dU)]) DNA: TTTTTAAGCCCACAAAAGTTCGATCAGCACAGGTCGCCAAAGTCGTGCCATG", "units-label": "ELISA signal", "binding signal": 289}
{"binder": "PEP 1.02 (ssDNA, W indole, X amine, Y phenol modified dU [16,19,25,36,43,46]) DNA: TTTTTAACACGACCATCCTGTGCCTCACGAACTCATTGCCCGTCGTGCCATG", "units-label": "ELISA signal", "binding signal": 742}
{"binder": "PEP 1.08 (ssDNA, W indole, X amine, Y phenol modified dU [19 (W indole dU); 20,46 (Y phenol dU); 25,43 (X amine dU)]) DNA: TTTTTAACACGACCCCGGTTCGACTCCCACAGAGCGGGGGTGTCGTGCCATG", "units-label": "ELISA signal", "binding signal": 357}
{"binder": "PEP 1.04 (ssDNA, W indole, X amine, Y phenol modified dU [16,19,34,38,43,46]) DNA: TTTTTAACACGACGCTCCTGTGACAGCCGAACATCATTGGTGTCGTGCCATG", "units-label": "ELISA signal", "binding signal": 645}
{"binder": "PEP 1.20 (ssDNA, W indole, X amine, Y phenol modified dU [19,24]) DNA: TTTTTAACACGACGAACCTGTGCTCAACACAGAACATCACAGTGGGCCCATG", "units-label": "ELISA signal", "binding signal": 188}
